B1: POLD4 (parent)
chain: ITDSYPVVKRREGPAGHSKGELAP

Variants of: B1
Test: protein stability index of a GFP-peptide fusion (GPS, HEK-293T) (PSI 1-6); higher = more stable;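 also: lentivirally expressed fusions sorted by FACS into six bins by GFP to DsRed ratio, PSI derived from sequencing read proportions per bin multiplied by bin number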
Conditions: c terminus: a fixed tail appended
OBSERVED_PROPERTY: protein stability index

Would you please look over these solved cases?
ITDSYPHVKRREGPAGHSKGELAP [V7H]: 4.4
ITDSWPVVKRREGPAGHSKGELAP [Y5W]: 3.08
ITDSYPVVKRREGPRGHSKGELAP [A15R]: 3.27

For ITDSYPVVKRREGQAGHSKGELAP [P14Q] , what is its reported protein stability index?
3.89

Can you check ITDSYPVVKRREGPAGHSKDELAP [G20D] next?
3.55

Can you check ITDSYPVVKRREGEAGHSKGELAP [P14E] next?
4.1

Can you check ITDSYPVVKWREGPAGHSKGELAP [R10W] next?
3.07
